target: Neu5Ac(a2-3)[GalNAc(b1-4)]Gal(b1-4)GlcNAc; assay: glycan array binding signal (z-score within array); higher = stronger binding; details: glycan notation: IUPAC condensed, linker removed
Only a selection was taken, and the strongest signals are over-represented in it overall.
endpointName: glycan array binding signal (z-score)
Give bare numbers.

Quick request: glycan array binding signal (z-score) for each listed item, please.
1. Als3-2 (Candida albicans) (protein) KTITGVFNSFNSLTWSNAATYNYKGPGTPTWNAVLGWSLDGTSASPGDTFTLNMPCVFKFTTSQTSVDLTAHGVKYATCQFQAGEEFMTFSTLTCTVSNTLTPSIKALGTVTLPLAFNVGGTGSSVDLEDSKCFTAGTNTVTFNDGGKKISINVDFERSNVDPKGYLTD
2. Na-CTL-1 (Necator americanus) (protein) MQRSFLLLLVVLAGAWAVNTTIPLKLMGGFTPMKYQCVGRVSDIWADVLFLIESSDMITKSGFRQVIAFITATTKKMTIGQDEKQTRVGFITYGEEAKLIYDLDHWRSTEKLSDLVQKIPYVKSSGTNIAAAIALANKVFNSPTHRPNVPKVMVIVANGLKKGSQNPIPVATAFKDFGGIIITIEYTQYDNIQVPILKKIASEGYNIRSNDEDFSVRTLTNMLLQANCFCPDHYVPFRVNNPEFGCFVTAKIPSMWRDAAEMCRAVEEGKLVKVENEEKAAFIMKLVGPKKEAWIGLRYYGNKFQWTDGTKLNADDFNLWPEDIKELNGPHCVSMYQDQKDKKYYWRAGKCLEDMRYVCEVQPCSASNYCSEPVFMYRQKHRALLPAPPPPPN
3. StdA (Salmonella typhimurium), Q8Z3Z0 (protein) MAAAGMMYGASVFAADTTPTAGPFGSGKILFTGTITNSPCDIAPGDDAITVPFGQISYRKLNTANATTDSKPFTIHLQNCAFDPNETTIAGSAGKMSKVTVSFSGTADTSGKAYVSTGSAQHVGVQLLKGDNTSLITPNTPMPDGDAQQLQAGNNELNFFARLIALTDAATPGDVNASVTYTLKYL

output:
1. -0.449
2. -0.222
3. -0.022

List the reported glycan array binding signal (z-score) of each binder below.
1. Epa3to1 (Candida glabrata) (protein) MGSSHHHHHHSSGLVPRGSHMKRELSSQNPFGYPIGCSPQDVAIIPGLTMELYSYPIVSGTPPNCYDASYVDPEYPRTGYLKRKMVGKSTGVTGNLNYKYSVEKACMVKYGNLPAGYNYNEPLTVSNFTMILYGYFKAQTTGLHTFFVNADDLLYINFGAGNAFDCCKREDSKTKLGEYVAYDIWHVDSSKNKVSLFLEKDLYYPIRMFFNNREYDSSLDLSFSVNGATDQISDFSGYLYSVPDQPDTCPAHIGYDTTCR
2. Clone646PsrP (Streptococcus pneumoniae) (protein) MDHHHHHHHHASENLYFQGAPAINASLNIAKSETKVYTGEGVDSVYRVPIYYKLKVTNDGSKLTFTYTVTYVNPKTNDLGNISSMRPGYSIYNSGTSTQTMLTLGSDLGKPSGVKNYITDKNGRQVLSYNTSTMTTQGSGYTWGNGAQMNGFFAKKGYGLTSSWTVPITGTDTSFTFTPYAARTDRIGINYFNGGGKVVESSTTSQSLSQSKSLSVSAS

output:
-0.706
-0.733
